- target-or-system: HLA-B*08:01
- protocol-details: IEDB peptide-MHC binding, purified MHC/competitive/radioactivity; filed as Kd, often an IC50 or EC50 that approximates it; bounds were set here for any values at or beyond the usual limits of such assays
- test-context: source organism: Vaccinia virus WR
pKd: −log10 of the molar value.
Label Satisfied when pKd is at or above 6; otherwise label Not satisfied.

Below, 4 sequences whose answers are already recorded.
# macromolecule-sequence, group
measured = [
    ("ALRFFLQRL", "Not satisfied"),
    ("MAMFYAHAL", "Satisfied"),
    ("EQKLRPNSF", "Not satisfied"),
    ("EKTQYTNDF", "Not satisfied"),
]

hey, is pKd for this one >= 6? RSIRKFNTM Satisfied

hey, is pKd for this one >= 6? IIIPLSVSI Not satisfied

hey, is pKd for this one >= 6? MVRLPYKDA Not satisfied

hey, is pKd for this one >= 6? SPYVKFIYF Not satisfied
